Collected literature values of IC50 measured for Ephrin type-B receptor 4 (Homo sapiens, UniProt P54760).

> print(dat)
                                   compound  observed.measurement
1  COc1cc(Nc2ncnc(Nc3cc(OC)c(OC)c(OC)c3)n2)cc(OC)c1            > 10900 nM
2  COc1cc(Nc2ncnc(-n3cc(C#N)c4ccccc43)n2)cc(OC)c1OC        994 to 5960 nM
3  COc1cc(Nc2ncnc(-n3c(N)nc4cc(Cl)ccc43)n2)cc(OC)c1OC              < 935 nM

# query: IC50 | item CN1CCN(c2ccc3[nH]c(-c4cc(-c5ccc(NC(=O)Nc6ccc(Cl)c(Cl)c6)cc5)[nH]n4)nc3c2)CC1 | system: Ephrin type-B receptor 4 (Homo sapiens, UniProt P54760) > 5000 nM

# query: IC50 | item COc1cc(Nc2ncnc(NC(=O)Nc3ccccc3)n2)cc(OC)c1OC | system: Ephrin type-B receptor 4 (Homo sapiens, UniProt P54760) > 11400 nM

# query: IC50 | item CN1CCN(c2ccc(-c3cc(-c4ccc(NC(=O)Nc5ccc(F)cc5F)cc4)[nH]n3)cc2)CC1 | system: Ephrin type-B receptor 4 (Homo sapiens, UniProt P54760) > 5000 nM

# query: IC50 | item COc1ccc2c(c1)c(CCNC(C)=O)cn2-c1ncnc(Nc2cc(OC)c(OC)c(OC)c2)n1 | system: Ephrin type-B receptor 4 (Homo sapiens, UniProt P54760) > 9140 nM

# query: IC50 | item COCCN1CCCOC(COc2cc3ncnc(Nc4ccc(Cl)c(Cl)c4)c3cc2OC)C1 (stereo not shown) | system: Ephrin type-B receptor 4 (Homo sapiens, UniProt P54760) 50 to 1000 nM

====

Collected literature values of IC50 measured for Ephrin type-B receptor 4 (Homo sapiens, UniProt P54760).

Worked cases, IC50 given:
> print(dat)
                                   molecule  observed.measurement
1  COc1cc2c(Nc3ccc(Cl)c(Cl)c3)ncnc2cc1OCc1csc(C2CCCCN2C)n1 (stereo not drawn)          0.05 to 1 µM
2  COc1cc(Nc2ncnc(Nc3ccc(C)cc3)n2)cc(OC)c1OC       6.53 to 9.53 µM
3  COc1cc(Nc2ncnc(Nc3cccc(Cl)c3)n2)cc(OC)c1OC             < 1.03 µM
4  COc1cc(Nc2ncnc(Nc3ccc4c(c3)OCO4)n2)cc(OC)c1OC       1.01 to 6.04 µM
5  COc1cc(/C=C/c2cc(/C=C/c3ccc(Cl)cc3)n[nH]2)ccc1O                > 5 µM

# query: IC50 | item COc1cc2c(Nc3ccc(Cl)c(Cl)c3)ncnc2cc1OC1CCCC1 | system: Ephrin type-B receptor 4 (Homo sapiens, UniProt P54760) 0.05 to 1 µM

# query: IC50 | item COc1cc(Nc2ncnc(Nc3ccc(N(C)C(C)=O)cc3)n2)cc(OC)c1OC | system: Ephrin type-B receptor 4 (Homo sapiens, UniProt P54760) > 10.6 µM

# query: IC50 | item COc1ccc(-n2ncc3c(Nc4ccccc4C)ncnc32)cc1 | system: Ephrin type-B receptor 4 (Homo sapiens, UniProt P54760) 0.16 µM

# query: IC50 | item COc1cc(Nc2ncnc(Nc3ccc(O)cc3Cl)n2)cc(OC)c1OC | system: Ephrin type-B receptor 4 (Homo sapiens, UniProt P54760) 0.991 to 5.94 µM
